- System: PC-3
- experiment summary: NCI tumour cell line growth inhibition, 48 h
Activity calls are given as the source filed them. No stated cut-off is given here; in the data, active = GI50 up to about 1.1 µM and inactive = higher.
Your reply should match one of these outcome classes. true (active), false (inactive)

C[N+](C)(CCNc1ccc(NCC[N+](C)(C)Cc2ccc([N+](=O)[O-])cc2)c2c1C(=O)c1c(O)ccc(O)c1C2=O)Cc1ccc([N+](=O)[O-])cc1 | false

Request: Which result was noted for this compound in the test: C[C@@H]1[C@@H](c2ccccc2)O[B-](c2ccccc2)(c2ccccc2)[N+]1(C)C
Response: false

Request: Test call for this compound, please: COC[C@@H](/N=C/C(C)(C)C)C(C)C
Response: false

Request: Status in this test for COc1ccc(Cc2nc3cc(C(F)(F)F)ccc3n2C[C@@H]2CCCN3CCCCC23)cc1 (stereo partly specified) ?
Response: false

* * *

We begin with a simple list: items and their reported GI50.
- System: K562
- experiment summary: NCI tumour cell line growth inhibition, 48 h
Active and inactive are the calls of the source. Rule as the data show it: active = GI50 up to about 1.1 µM and inactive = higher.

O=c1[nH]c2cc([N+](=O)[O-])ccc2nc1/C(=N/Nc1ccccc1)C(O)c1ccccc1Cl (centres undefined) | 42.5 µM (inactive)
CN(C)/C=N/Cc1ccc2c(c1)OCO2 | > 100 µM (inactive)
CC(C)CCNC(=O)c1ccc(CNC(=O)/C=C/c2ccc3c(c2)-c2ccccc2C3)cc1 | 64.3 µM (inactive)
O=[N+]([O-])c1ccc2[nH]c3c(-c4ccccc4)nccc3c2c1 | 1.71 µM (inactive)
COc1nc2c(c(=O)n1C)N=C(c1ccccc1)[C@H](C(CC(=O)c1ccccc1)c1ccccc1)C(c1ccccc1)N2 (some centres undefined) | 55.5 µM (inactive)

Request: API: value(readout=GI50, system=K562) for record NS(=O)(=O)c1ccc(NC(=S)N/C=C2\C(=O)Oc3ccccc3C2=O)cc1
Response: 35.1 µM (inactive)

Request: # value lookup — system K562, readout GI50, item O=C(N/N=C\C=C\c1ccc([N+](=O)[O-])o1)C(=O)N/N=C\C=C\c1ccc([N+](=O)[O-])o1
Response: > 100 µM (inactive)

Request: Query GI50 on K562 for CNC(=O)N(CCC#N)[C@H]1CCCC[C@@H]1N(C(=O)NC)c1ccccc1
Response: > 100 µM (inactive)

Request: Checklist item: GI50 tested on K562, entry CCOC(=O)/C1=C(\C)N(Cc2ccccc2)C(=O)c2ccccc2C(=O)c2c(O)ccc(O)c21 , value?
Response: > 100 µM (inactive)

* * *

- Tested on: Hs-578T
- experiment summary: NCI tumour cell line growth inhibition, 48 h
Activity calls are given as the source filed them. Rule as the data show it: active = GI50 up to about 1.1 µM and inactive = higher.
Consider the following molecules and their measured GI50 readings.

Request: // lookup GI50 for O=c1cc(N2CCCC2)[nH]c(=O)n1-c1ccc(F)cc1
Response: > 100 µM (inactive)

Request: What value of GI50 has been recorded for this entry: CO/N=C/c1c(-c2ccc(Cl)cc2)c(/C=N/OC)n2c1sc1ccccc12
Response: > 100 µM (inactive)

Request: // query GI50 value for entry Oc1[nH]c(Nc2cc(Cl)cc(Cl)c2)nc2ncnc1-2
Response: 17.9 µM (inactive)

Request: Query (molecule): O=C(N1CCOCC1)C1(c2ccccc2)CCNCC1 ; field requested: GI50
Response: > 100 µM (inactive)

Request: Need GI50, item C(/C=N/N=C1NCCN1)=N\N=C1NCCN1
Response: > 100 µM (inactive)
